Biological target: T1, hmm.hTfRC (REGN2431), human transferrin receptor extracellular domain with hexahistidine-myc-myc tag (human, UniProt P02786 89-760)
T1 construct: Monomeric recombinant protein, 79210 g/mol; also called hTFR-mmh; His-myc-myc-hTFRC ecto
T1 sequence (P02786 other isoform, or with tags, fused parts or gaps): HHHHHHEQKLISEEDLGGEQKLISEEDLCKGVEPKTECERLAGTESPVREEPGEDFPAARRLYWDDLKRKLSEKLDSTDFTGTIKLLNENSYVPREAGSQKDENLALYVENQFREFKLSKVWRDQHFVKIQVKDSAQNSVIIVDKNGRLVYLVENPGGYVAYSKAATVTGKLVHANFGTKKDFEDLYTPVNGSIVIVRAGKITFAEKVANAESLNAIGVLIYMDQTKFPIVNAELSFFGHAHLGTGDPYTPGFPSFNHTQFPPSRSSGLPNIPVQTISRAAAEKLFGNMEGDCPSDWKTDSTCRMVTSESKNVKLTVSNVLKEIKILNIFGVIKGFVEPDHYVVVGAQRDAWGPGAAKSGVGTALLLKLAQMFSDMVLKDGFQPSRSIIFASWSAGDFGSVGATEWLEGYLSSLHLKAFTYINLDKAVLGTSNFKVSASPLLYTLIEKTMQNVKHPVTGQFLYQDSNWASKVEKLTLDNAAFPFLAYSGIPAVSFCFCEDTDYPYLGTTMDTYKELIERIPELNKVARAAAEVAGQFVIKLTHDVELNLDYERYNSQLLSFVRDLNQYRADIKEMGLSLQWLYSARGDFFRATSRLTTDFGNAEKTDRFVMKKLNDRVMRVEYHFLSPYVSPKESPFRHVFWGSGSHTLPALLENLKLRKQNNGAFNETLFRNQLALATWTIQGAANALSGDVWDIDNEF
Assay: SPR (Biacore), mAb captured on anti-human Fc, 100 nM hTFR-mmh, 25 C
measured-attribute: t½

Note down t½ recorded for 12802B (antibody, human IgG1, kappa, V domains shown, Tested as bivalent human IgG1 from CHO primary supernatant) VH: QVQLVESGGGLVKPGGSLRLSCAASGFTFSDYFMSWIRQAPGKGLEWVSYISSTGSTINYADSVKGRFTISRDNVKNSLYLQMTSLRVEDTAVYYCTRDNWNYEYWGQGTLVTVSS VL: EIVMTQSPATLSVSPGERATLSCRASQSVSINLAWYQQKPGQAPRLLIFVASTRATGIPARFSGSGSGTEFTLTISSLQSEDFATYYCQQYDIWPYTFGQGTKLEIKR
6.59 h

Note down t½ recorded for 69326 (antibody, human IgG1, kappa, V domains shown, Tested as bivalent human IgG1 from CHO primary supernatant) VH: EVQLVESGGGLVQPGGSLRLSCAVSGFIFSSYEMNWVRQAPGKGLEWVSYISSSGSTIFYADSVKGRFTISRDNAKNSLYLQMNSLRAEDTAVYYCVSGVVLFDVWGQGTMVTVSS VL: EIVMTQSPATLSVSPGERATLSCRASQSVSSNFAWYQQKPGQAPRLLIYSASSRATGIPVRFSGSGSGTEFTLTISSLQSEDFAVYYCQQYNIWPRTFGQGTKVEIKR
0.752 h
